The origin of these recorded values is paper PMC9027111.

Reported Plasma Protein Binding Bound % by item:
PROTOCOL_TEXT: Plasma protein binding by equilibrium dialysis
Format: in vitro ADME
SETUP_CONDITIONS: 5 μM, 6 h, 37 °C
Report the figure in % without appending any unit label.

Would you please look over these solved cases?
{"COMPOUND": "CCCCCCCCCCCCCCCCCCOC(=O)C=CC1=CC23CC4CC(OC4(C)C2)C3C(C)(CCC(=O)Nc2c(O)ccc(C(=O)O)c2O)C1=O (stereo not shown)", "UNIT_SPEC": "%", "Plasma Protein Binding Bound %": 99.2}
{"COMPOUND": "CC12CC34C=C(C#Cc5cccc(F)c5)C(=O)C(C)(CCC(=O)Nc5c(O)ccc(C(=O)O)c5O)C3C(CC1C4)O2 (stereo not shown)", "UNIT_SPEC": "%", "Plasma Protein Binding Bound %": 99.4}
{"COMPOUND": "CC12CC34C=C(c5ccc6ccc7cccc8ccc5c6c78)C(=O)C(C)(CCC(=O)Nc5c(O)ccc(C(=O)O)c5O)C3C(CC1C4)O2 (stereo not shown) [1b, 6-pyrenyl PTM, reference compound]", "UNIT_SPEC": "%", "Plasma Protein Binding Bound %": 99.9}
{"COMPOUND": "CC12CC34C=C(I)C(=O)C(C)(CCC(=O)Nc5c(O)ccc(C(=O)O)c5O)C3C(CC1C4)O2 (stereo not shown)", "UNIT_SPEC": "%", "Plasma Protein Binding Bound %": 87}
{"COMPOUND": "CC(=O)C1=C(C)OC(Cc2ccc(F)cc2)=C2C(=O)C(C)(CCC(=O)Nc3c(O)ccc(C(=O)O)c3O)C3C4CC5CC3(CC5(C)O4)C12 (stereo not shown)", "UNIT_SPEC": "%", "Plasma Protein Binding Bound %": 99.6}
{"COMPOUND": "CC12CC34C=C(C=CC(=O)N5CCOCC5)C(=O)C(C)(CCC(=O)Nc5c(O)ccc(C(=O)O)c5O)C3C(CC1C4)O2 (stereo not shown)", "UNIT_SPEC": "%", "Plasma Protein Binding Bound %": 77}

Now for a further compound.
What the record says about CC(C)(C)OC(=O)C=CC1=CC23CC4CC(OC4(C)C2)C3C(C)(CCC(=O)Nc2c(O)ccc(C(=O)O)c2O)C1=O (stereo not shown) : Plasma Protein Binding Bound % is 98.3

====

Reported half-life by item:
PROTOCOL_TEXT: Metabolic stability assay in pooled human liver microsomes
Type: in vitro ADME
SETUP_CONDITIONS: pH 7.4, 37 °C, NADPH, read-out: Half-Life in Human Hepatic Microsomes
Report the figure in h without appending any unit label.

Would you please look over these solved cases?
{"MOLECULE": "CC12CC34C=C(I)C(=O)C(C)(CCC(=O)Nc5c(O)ccc(C(=O)O)c5O)C3C(CC1C4)O2 (stereo not shown)", "UNIT_SPEC": "h", "half-life": 0.967}
{"MOLECULE": "CC(C)(C)OC(=O)C=CC1=CC23CC4CC(OC4(C)C2)C3C(C)(CCC(=O)Nc2c(O)ccc(C(=O)O)c2O)C1=O (stereo not shown)", "UNIT_SPEC": "h", "half-life": 0.433}

What the record says about CC12CC34C=C(C#Cc5cccc(F)c5)C(=O)C(C)(CCC(=O)Nc5c(O)ccc(C(=O)O)c5O)C3C(CC1C4)O2 (stereo not shown) : half-life is 1.6

What the record says about CC(=O)C1=C(C)OC(Cc2ccc(F)cc2)=C2C(=O)C(C)(CCC(=O)Nc3c(O)ccc(C(=O)O)c3O)C3C4CC5CC3(CC5(C)O4)C12 (stereo not shown) : half-life is 0.283

What the record says about CC12CC34C=C(c5ccc6ccc7cccc8ccc5c6c78)C(=O)C(C)(CCC(=O)Nc5c(O)ccc(C(=O)O)c5O)C3C(CC1C4)O2 (stereo not shown) [1b, 6-pyrenyl PTM, reference compound] : half-life is 1.22

What the record says about CCCCCCCCCCCCCCCCCCOC(=O)C=CC1=CC23CC4CC(OC4(C)C2)C3C(C)(CCC(=O)Nc2c(O)ccc(C(=O)O)c2O)C1=O (stereo not shown) : half-life is 1.27
